- assayed_target: human TMEM16A (TMEM16Aabc variant) (Homo sapiens, UniProt Q5XXA6, DEL476-501, form not given)
- Sequence (Q5XXA6 with tags, fused parts or gaps DEL476-501): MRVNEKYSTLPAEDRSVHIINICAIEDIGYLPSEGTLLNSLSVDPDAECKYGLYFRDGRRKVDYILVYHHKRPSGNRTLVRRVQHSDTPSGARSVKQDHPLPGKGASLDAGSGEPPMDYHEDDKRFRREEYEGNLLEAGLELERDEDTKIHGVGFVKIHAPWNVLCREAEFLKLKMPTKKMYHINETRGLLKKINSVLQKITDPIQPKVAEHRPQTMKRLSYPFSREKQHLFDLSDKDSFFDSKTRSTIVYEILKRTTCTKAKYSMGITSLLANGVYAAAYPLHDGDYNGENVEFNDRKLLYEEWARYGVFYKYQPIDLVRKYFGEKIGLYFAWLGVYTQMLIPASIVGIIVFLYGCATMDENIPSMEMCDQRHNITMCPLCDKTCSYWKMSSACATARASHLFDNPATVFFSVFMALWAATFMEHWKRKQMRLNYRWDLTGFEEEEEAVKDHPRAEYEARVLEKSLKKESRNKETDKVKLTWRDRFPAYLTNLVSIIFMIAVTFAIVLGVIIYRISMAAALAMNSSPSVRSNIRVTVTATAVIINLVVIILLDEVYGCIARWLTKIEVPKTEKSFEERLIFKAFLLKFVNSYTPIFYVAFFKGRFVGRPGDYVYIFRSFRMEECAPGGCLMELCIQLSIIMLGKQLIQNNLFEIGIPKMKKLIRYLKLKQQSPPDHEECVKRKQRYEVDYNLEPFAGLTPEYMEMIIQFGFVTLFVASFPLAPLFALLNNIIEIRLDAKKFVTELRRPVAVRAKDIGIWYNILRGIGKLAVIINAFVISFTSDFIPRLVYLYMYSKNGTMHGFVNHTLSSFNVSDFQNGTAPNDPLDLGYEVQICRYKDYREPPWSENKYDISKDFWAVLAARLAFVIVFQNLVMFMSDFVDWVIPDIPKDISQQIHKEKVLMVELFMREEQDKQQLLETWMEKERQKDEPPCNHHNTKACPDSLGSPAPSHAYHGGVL
- experiment_description: Automated whole-cell patch clamp (Qpatch) TMEM16A potentiator assay in FRT cells stably expressing human TMEM16A
- run_conditions: calculated EC50, Qpatch TMEM16A current at +70 mV
Binary label based on EC50 with cut-off 200 nM: below gives met, not below gives not met.

| compound | class |
| --- | --- |
| C#CC1(NC(=O)c2cc(NC(=O)Cc3ccccc3Cl)ccn2)CCOCC1 [Example 30.11] | not met |
| CC(C)(NC(=O)c1cc(NC(=O)Cc2cc(Cl)ccc2O)ccn1)c1ccccc1 [Example 94] | not met |
| CC(C)(C)NC(=O)c1cccc(NC(=O)Cc2cccc(O)c2O)c1 [Example 2.16] | not met |

**Query** Does this compound meet the criterion EC50 < 200 nM? O=C(Cc1cc(Cl)ccc1O)Nc1ccnc(C(=O)Nc2ccccc2)c1 [Example 35.16]
**Result** not met

**Query** hey, is EC50 for CC(C)(C)NC(=O)c1cc(NC(=O)Cc2ccc3ccccc3c2)ccn1 [Example 5.24] lower than 200 nM or not?
**Result** met

**Query** A record lists CC(C)(C)NC(=O)c1cc(NC(=O)Cc2cc(O)ccc2F)ccn1 [Example 3.13b] . Is its EC50 below 200 nM?
**Result** not met

// provenance: patent US20200361871A1
